# test_target: PI3K
# Construct: full length DNA of each of the p110α, p110β and p110δ Type Ia human PI3K p110 isoforms
# Sequence (P42336 whole entry, canonical isoform): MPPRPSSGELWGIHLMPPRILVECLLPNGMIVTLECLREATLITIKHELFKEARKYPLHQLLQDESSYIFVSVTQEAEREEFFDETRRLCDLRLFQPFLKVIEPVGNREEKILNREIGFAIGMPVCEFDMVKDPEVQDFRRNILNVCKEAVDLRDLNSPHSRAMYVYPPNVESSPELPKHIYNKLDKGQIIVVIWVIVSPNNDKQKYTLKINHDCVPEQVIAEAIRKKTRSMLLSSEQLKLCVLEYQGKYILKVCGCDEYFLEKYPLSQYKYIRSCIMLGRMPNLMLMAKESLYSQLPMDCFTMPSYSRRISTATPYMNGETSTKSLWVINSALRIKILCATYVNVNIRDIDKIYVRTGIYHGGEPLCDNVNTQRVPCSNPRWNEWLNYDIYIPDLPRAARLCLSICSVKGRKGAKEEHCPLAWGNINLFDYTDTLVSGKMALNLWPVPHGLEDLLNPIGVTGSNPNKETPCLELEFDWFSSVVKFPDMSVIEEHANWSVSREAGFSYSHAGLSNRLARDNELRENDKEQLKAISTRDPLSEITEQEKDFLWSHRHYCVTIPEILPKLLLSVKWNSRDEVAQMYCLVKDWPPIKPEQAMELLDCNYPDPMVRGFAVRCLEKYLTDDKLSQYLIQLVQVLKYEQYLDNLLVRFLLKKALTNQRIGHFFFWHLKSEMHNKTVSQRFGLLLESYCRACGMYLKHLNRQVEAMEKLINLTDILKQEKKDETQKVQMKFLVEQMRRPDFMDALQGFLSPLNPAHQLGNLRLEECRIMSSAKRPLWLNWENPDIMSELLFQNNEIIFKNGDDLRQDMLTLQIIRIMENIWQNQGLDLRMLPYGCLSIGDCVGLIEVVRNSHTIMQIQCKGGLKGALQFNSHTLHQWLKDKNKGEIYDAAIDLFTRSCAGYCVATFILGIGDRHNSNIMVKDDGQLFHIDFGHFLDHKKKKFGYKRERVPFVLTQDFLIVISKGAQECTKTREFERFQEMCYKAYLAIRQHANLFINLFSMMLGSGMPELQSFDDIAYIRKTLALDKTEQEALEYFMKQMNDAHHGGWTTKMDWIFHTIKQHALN
# Sequence (P27986 2-724, further chain): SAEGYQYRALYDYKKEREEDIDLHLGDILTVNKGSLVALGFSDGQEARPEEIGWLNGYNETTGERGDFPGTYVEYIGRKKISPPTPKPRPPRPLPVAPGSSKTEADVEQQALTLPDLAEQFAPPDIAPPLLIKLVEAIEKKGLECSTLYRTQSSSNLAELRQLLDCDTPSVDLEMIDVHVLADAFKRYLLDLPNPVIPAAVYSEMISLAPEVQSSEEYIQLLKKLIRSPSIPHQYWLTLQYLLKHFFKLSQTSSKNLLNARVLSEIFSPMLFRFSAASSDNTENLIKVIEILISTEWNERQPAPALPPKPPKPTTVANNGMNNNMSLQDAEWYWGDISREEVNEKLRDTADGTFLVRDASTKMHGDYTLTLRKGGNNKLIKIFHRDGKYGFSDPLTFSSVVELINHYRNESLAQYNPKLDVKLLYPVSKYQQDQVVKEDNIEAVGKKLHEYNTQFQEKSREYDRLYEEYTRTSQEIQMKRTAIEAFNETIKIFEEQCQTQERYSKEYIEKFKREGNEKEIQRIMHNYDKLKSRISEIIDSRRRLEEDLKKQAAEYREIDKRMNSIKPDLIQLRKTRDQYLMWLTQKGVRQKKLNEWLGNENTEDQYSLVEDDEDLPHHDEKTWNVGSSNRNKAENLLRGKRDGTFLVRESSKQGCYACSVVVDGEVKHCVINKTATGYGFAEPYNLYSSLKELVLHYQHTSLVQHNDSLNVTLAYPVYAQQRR
# procedure_details: In vitro PI3K enzyme assay, Test (b)(i) (AlphaScreen)
# condition_notes: single values measured on two occasions; isoform (p110α or p110γ) not clearly stated; read-out: IC50 versus PI3K, Test (b)(i)
metric: IC50 (µM)
Answers are plain numbers, in µM.

Input: For the compound C[C@H]1COCCN1c1cc(CS(C)(=O)=O)nc(-c2ccc3cc[nH]c3c2)n1 , what IC50 is on record?
Output: 37
